experiment: logP by HPLC on reversed phase columns (EEC directive 79/831 Annex V.A8); assay type: physicochemical; settings: method [a]: LC-MS at pH 2.7, 0.1% formic acid in water / acetonitrile; compounds of formula (I), Table 1
property.name: logP

Lab note: CC1c2c(NC(=O)c3cn(C)nc3C(F)(F)F)cccc2C(C)(C)C1C (stereo not drawn) [Example 31] gave logP of 3.76[a]

Lab note: Cc1nn(C)c(C(F)(F)Cl)c1C(=O)Nc1cccc2c1CC(C(C)C)C2(C)C (stereo not drawn) [Example 53] gave logP of 4.86[a]

CCCc1nn(C)cc1C(=O)Nc1cccc2c1CC(C)C2(C)C (stereo not drawn) [Example 21] has a reported logP of 3.64[a]

Please fill in: logP reported for CC(C)c1nn(C)cc1C(=O)Nc1cccc2c1CC(C)C2(C)C (stereo not drawn) [Example 23] = 3.69[a]

Form field logP, entry CC1Cc2c(NC(=O)c3cn(C)nc3C(F)(F)C(F)(F)F)cccc2C1(C)C (racemic) [Example 85] : 4.21[a]

Measured logP of CCc1nn(C)cc1C(=O)Nc1cccc2c1CC(CC)(CC)C2C (racemic) [Example 82] : 4.06[a]

So, CCC1Cc2c(NC(=O)c3c(C)nn(C)c3F)cccc2C1(C)C (stereo not drawn) [Example 37] ? Its logP was 3.99[a]

logP reading for CCC1(CC)Cc2c(NC(=O)c3cn(C)nc3C(F)(F)F)cccc2C1C (racemic) [Example 74] : 4.46[a]

The value of logP measured for the molecule Cc1nn(C)c(Cl)c1C(=O)Nc1cccc2c1CC(C(C)C)C2(C)C (racemic) [Example 69] turned out to be 4.76[a]

// sample CC1Cc2c(NC(=O)c3cn(C)nc3C(F)F)cccc2C1(C)C (stereo not drawn) [Example 6] , its logP was 3.55[a]

Lab note: Cc1nn(C)c(C)c1C(=O)Nc1cccc2c1C(C)C(C)C2(C)C (stereo not drawn) [Example 16] gave logP of 3.15[a]

Measured logP of CCC1Cc2c(NC(=O)c3c(C)nn(C)c3C)cccc2C1(C)C (stereo not drawn) [Example 38] : 3.55[a]

Lab note: measured logP of CC1Cc2c(NC(=O)c3cn(C)nc3I)cccc2C1(C)C (racemic) [Example 75] was 3.64[a]

What the record says about CCc1c(C(=O)Nc2cccc3c2CC(C)C3(C)C)cnn1C (stereo not drawn) [Example 20] : logP is 3.37[a]

Sure, the documented logP for CC(C)C1Cc2c(NC(=O)c3c(C(F)(F)F)nn(C)c3F)cccc2C1(C)C (racemic) [Example 66] is 4.82[a]

Summary for this molecule, CCC1Cc2c(NC(=O)c3cnn(C)c3C)cccc2C1(C)C (stereo not drawn) [Example 59] : logP is 3.42[a]

# logP of CCC1(CC)Cc2c(NC(=O)c3cn(C)nc3C(F)F)cccc2C1C (racemic) [Example 79] = 4.27[a]

The measured logP associated with CCC1Cc2c(NC(=O)c3c(C(F)(F)F)nn(C)c3F)cccc2C1(C)C (stereo not drawn) [Example 50] reads 4.51[a]

Value of logP reported for the molecule CCCc1nn(C)cc1C(=O)Nc1cccc2c1CC(C(C)C)C2(C)C (stereo not drawn) [Example 47] is 4.51[a]

Just so you know, measured logP for CCCc1nn(C)c(F)c1C(=O)Nc1cccc2c1CC(C)C2(C)C (stereo not drawn) [Example 19] came out at 4.39[a]

logP reading for Cc1c(C(=O)Nc2cccc3c2CC(C(C)C)C3(C)C)cnn1C (racemic) [Example 62] : 3.73[a]

The recorded logP for entry Cc1nn(C)c(F)c1C(=O)Nc1cccc2c1CC(C(C)C)C2(C)C (stereo not drawn) [Example 41] equals 4.34[a]

The molecule CCCc1nn(C)c(F)c1C(=O)Nc1cccc2c1CC(CC)C2(C)C (stereo not drawn) [Example 48] showed logP equal to 4.85[a]

Entry CCc1nn(C)c(Cl)c1C(=O)Nc1cccc2c1CC(C)C2(C)C (stereo not drawn) [Example 7] , logP reported as 4.31[a]

molecule Cn1cc(C(=O)Nc2cccc3c2CC(C)(C)C3)c(C(F)F)n1 [Example 45] , logP observed: 3.21[a]

The recorded logP for entry CCC1(CC)Cc2c(NC(=O)c3c(C)nn(C)c3F)cccc2C1C (racemic) [Example 70] equals 4.32[a]

Sure, the documented logP for Cc1c(C(=O)Nc2cccc3c2CC(C)C3(C)C)c(C(F)(F)Cl)nn1C (stereo not drawn) [Example 72] is 3.99[a]

GET /value?item= CCCc1nn(C)cc1C(=O)Nc1cccc2c1CC(CC)C2(C)C (racemic) [Example 64] &field=logP returns 4.2[a]

Reported logP for [2H]C1(C)Cc2cccc(NC(=O)c3cn(C)nc3C(F)F)c2C1 (stereo not drawn) [Example 26] was 2.94[a]

For Cc1nn(C)c(C)c1C(=O)Nc1cccc2c1CC(C(C)C)C2(C)C (stereo not drawn) [Example 42] the molecule record lists logP as 3.87[a]

Just so you know, measured logP for CCc1nn(C)c(F)c1C(=O)Nc1cccc2c1CC(C)(C)C2C (stereo not drawn) [Example 14] came out at 3.99[a]

logP measured on Cc1nn(C)c(F)c1C(=O)Nc1cccc2c1C(C)C(C)C2(C)C (stereo not drawn) [Example 33] = 3.52[a]

Measured logP of Cc1c(C(=O)Nc2cccc3c2CC(C)C3(C)C)c(C(F)(F)F)nn1C (stereo not drawn) [Example 18] : 3.83[a]

Form: molecule = CC(C)C1Cc2c(NC(=S)c3cn(C)nc3C(F)(F)F)cccc2C1(C)C (racemic) [Example 86] ; logP = 4.78[a]

Quick note, logP for CCCc1nn(C)c(F)c1C(=O)Nc1cccc2c1CC(C(C)C)C2(C)C (racemic) [Example 65] landed at 5.29[a]

Measured logP, CCc1c(C(=O)Nc2cccc3c2CC(CC)C3(C)C)cnn1C (racemic) [Example 63] : 3.83[a]
